Target: T1, PUF4 RNA-binding domain (Saccharomyces cerevisiae, UniProt P25339 537-888)
T1 sequence: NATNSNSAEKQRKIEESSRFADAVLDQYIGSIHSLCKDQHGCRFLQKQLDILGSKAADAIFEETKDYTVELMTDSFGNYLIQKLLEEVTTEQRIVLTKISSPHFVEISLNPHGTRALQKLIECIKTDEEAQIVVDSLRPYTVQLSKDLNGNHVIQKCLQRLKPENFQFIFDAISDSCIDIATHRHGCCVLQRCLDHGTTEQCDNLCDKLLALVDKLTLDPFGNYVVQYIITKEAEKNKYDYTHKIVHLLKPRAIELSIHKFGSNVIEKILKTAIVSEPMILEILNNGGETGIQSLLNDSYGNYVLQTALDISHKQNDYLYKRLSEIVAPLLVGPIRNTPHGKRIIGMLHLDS
Assay: Mg; RNA-MaP; 20 mM Na-HEPES pH 7.4, 30 mM KOAc, 0.75 mM MgCl2, 0.1% Tween-20, 5% glycerol, 0.1 mg/mL BSA, 2 mM DTT; 25 C; 0.0125-409.6 nM protein
Conditions: tags: N-His6-TEV cleaved; C-SNAP kept, Cy3B-labelled; label: tethered on chip by stalled RNA polymerase
quantity-measured: pKd
The quantity pKd is defined as the negative base-10 logarithm of the molar concentration.

Give the measured pKd of UCUCUUAGUAUAUAUAUCUCUCUU (ssRNA) [Id_ii_S1_P3E.3_K3.2_C3.2_[C-2A]_[T-1G]_H3.2_A3.1_F3.1_T3.2_[A10C]] .
6.19

Try this binder too: Ic_S4_P4E.1_K4.1_C4.1_H4.1_A4.1_[T5C]_F4.1_[A9C]_T4.1 (ssRNA) RNA: UUUGACAACUGAUCGUUCUUUCUUGUACAUUCUUCUUUCUCGAUCAGUUGUCUUU
8.45

Try this binder too: ACAAACGGAACACUAUAUAACAAAC (ssRNA) [Id_i_S3_P3E.7_K3.3_C3.3_[T-3G]_[C-2G]_[T-1A]_H3.3_A3.1_F3.1_T3.2]
5.84

Try this binder too: UCUCUUGCUGUAUAUAUUUCUCUU (ssRNA) [Id_ii_S1_P3E.2_K3.1_C3.2_[C-2G]_[T-1C]_H3.1_A3.1_F3.1_T3.2_[A10T]]
7.89
